B1: TPR 5TU (parent)
chain: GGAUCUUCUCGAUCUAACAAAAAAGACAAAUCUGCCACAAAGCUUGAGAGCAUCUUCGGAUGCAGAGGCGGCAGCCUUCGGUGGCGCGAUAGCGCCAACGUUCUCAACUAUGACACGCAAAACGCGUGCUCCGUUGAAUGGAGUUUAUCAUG

# Variants of: B1
# PROTOCOL: polymerase ribozyme fitness, log enrichment relative to wild type (log ratio); higher = more active; in vitro selection for triplet polymerase activity
Variants at the floor of the assay were thinned out.
OBSERVABLE: polymerase ribozyme fitness (log ratio)

# SEQUENCE_CHANGE, RESULT
rows = [
    ("G59U A106G C114U", -1.65),
    ("G83U A120U G141C", -0.804),
    ("U139G C149G", -3.88),
    ("U7G", -2.22),
    ("A3U G11C U44A G58C G62A G68A G94C", "≤ -4.2"),
    ("A26G G88C A91C C93A C116U", "≤ -4.2"),
    ("A26G G46A G48C C51U G71C C103U A120G C149G", "≤ -4.2"),
    ("C87U A89G C103U A115C C123U G143U", "≤ -4.2"),
    ("C54G C63G C93U A115U C149G", "≤ -4.2"),
    ("A39U C54U C87A C99A G133U", "≤ -4.2"),
    ("A52U C129U", -2.91),
    ("G71C C87A G128U C131U G152U", "≤ -4.2"),
    ("G84A C118U", -0.13),
    ("U55A G70C G92U A119U", -3.25),
    ("G84A G86U C95A C99U U101A C123G", "≤ -4.2"),
    ("A22G U31C G94C", 0.086),
    ("U7G C10U C35U A64G C96A C129A", "≤ -4.2"),
    ("G92C G94A", -2.95),
    ("A39U G141U", -1.56),
    ("A52G A142U", -0.597),
    ("A20G U55G C116U A121C", -0.705),
    ("A19C A30G C87U G128C G136U", "≤ -4.2"),
    ("A22C A26G A30U U45G G74C C103G G140U", "≤ -4.2"),
    ("C96A C116U", -0.662),
    ("A39C C149U", -2.97),
    ("U6A U13A U61A C76A A91G", "≤ -4.2"),
    ("U53A G94C", -1.3),
    ("A40C U53A A110C", -4.04),
    ("U31C C93U C131U", 1.12),
    ("U7G C57U G59C G88A C93A A115C", "≤ -4.2"),
    ("A52C C57U G86U C99U C118U C125G G143A U151A", "≤ -4.2"),
    ("A28U G50C C54U C95A A107U G143U", "≤ -4.2"),
    ("U31G G59U A138U", "≤ -4.2"),
    ("C54A G59A C87U", -1.95),
    ("C38G C85G C105U A121U G124A", -2.25),
    ("A30G A52C U53C C93A G100C C132A", "≤ -4.2"),
    ("C36U C87U", -1.6),
    ("A52U G94A G133U G143U", -3.88),
    ("U56C G58U C114U A119U", -1.67),
    ("A12C C54U A91U", "≤ -4.2"),
    ("U13G G59U C96U", -0.998),
    ("U31A C96U C99A", -1.23),
    ("U55A U56A A66C G70C C108U", "≤ -4.2"),
    ("G81A A91G", -2.82),
    ("G83C C129G A137C U145C", "≤ -4.2"),
    ("G46U C69U C96A A110U A121C", "≤ -4.2"),
    ("A16U A49G", -1.93),
    ("U56A C93U U127C", -2.73),
    ("U45A C93U", -3.15),
    ("C10U A20U C57A U145C", -3.45),
    ("A49C G84U A107G U111G A120G", "≤ -4.2"),
    ("C93G G94U C108G", "≤ -4.2"),
    ("A40C U109C C116U C131U A147U", -2.36),
    ("A17C C18G A40U G86U", -1.43),
    ("U4G G42C C76G U90C C93G A113C", "≤ -4.2"),
    ("A40C G67C G71C A98G C103A C105G", "≤ -4.2"),
    ("A19C A30U G50A A73C G80U G86A C118A U145G", "≤ -4.2"),
    ("C14G A40C G42C G48A G86U G92U C99A", "≤ -4.2"),
    ("G50C C87U G100A", "≤ -4.2"),
    ("C38G G50C G65U G84A C96U C99U U111G G143A", "≤ -4.2"),
    ("C54U G58A A64C G71A", "≤ -4.2"),
    ("C69U G86U C114U G141U", "≤ -4.2"),
    ("C10A C93G", "≤ -4.2"),
    ("A49U G84U A97C G126C A138G A150G", "≤ -4.2"),
    ("G86A U148C", -1.5),
    ("G50U G83A C95G A107G", "≤ -4.2"),
    ("U6A G50A A89U G92U A137G", -3.34),
    ("A21U A29U A66U C76A C93G", "≤ -4.2"),
    ("C105A U135C", -2.39),
    ("A26U U82A A106C", -3.93),
    ("A26U A28U G81C U90A", "≤ -4.2"),
    ("A20C G50A C76G G80C A91U A98G", "≤ -4.2"),
    ("A16G C27G G70C C87U A119U G133C G143A", "≤ -4.2"),
    ("C93U A119U G141A", -0.528),
    ("G48U G59U", 0.371),
    ("A19U G94C", -0.449),
    ("C54G A89U C95U A97C", -2.48),
    ("A52C C96A C118G C125A", -2.23),
    ("A47G G50C G71C G94A U134C", "≤ -4.2"),
    ("A30G C35G G59U A113C C131A", "≤ -4.2"),
    ("A22U C76U", 0.515),
    ("A40U A60G", 0.828),
    ("G11A A49G A60U", -2.63),
    ("A41G A47C G81C", -0.0928),
]
